- System: Escherichia coli TOP10
- assay.info: shrunken log2 fold change of peptide-encoding DNA abundance (4.5 h post-induction vs induction); higher = less antimicrobial activity (less host growth inhibition)
- test.context: time post-induction: 4.5 h; library: site-saturation at positions 5, 18, 19, 20
I would appreciate it if you labelled entries rule met when shrunken log2 fold change is 0.04 or higher, otherwise rule not met.

Examples from the recorded data:
primary.sequence | qualitative.label
RRIRLRPPRLPRPRPRPYNRPRP | rule not met
RRIRYRPPRLPRPRPRPRMIPRP | rule not met
RRIRKRPPRLPRPRPRPFCEPRP | rule not met
RRIRVRPPRLPRPRPRPFGIPRP | rule not met
RRIRLRPPRLPRPRPRPNCCPRP | rule not met

Quick check: does `RRIRKRPPRLPRPRPRPMIGPRP` have shrunken log2 fold change greater than or equal to 0.04? rule met

Quick check: does `RRIRLRPPRLPRPRPRPASNPRP` have shrunken log2 fold change greater than or equal to 0.04? rule not met

Quick check: does `RRIRVRPPRLPRPRPRPCYLPRP` have shrunken log2 fold change greater than or equal to 0.04? rule not met

----------
- Test system: Escherichia coli TOP10
- assay.info: shrunken log2 fold change of peptide-encoding DNA abundance (4.5 h post-induction vs induction); higher = less antimicrobial activity (less host growth inhibition)
- test.context: time post-induction: 4.5 h; library: site-saturation at positions 5, 18, 19, 20
I would appreciate it if you labelled entries YES when shrunken log2 fold change is -0.1 or higher, otherwise NO.

Examples from the recorded data:
primary.sequence | qualitative.label
RRIRIRPPRLPRPRPRPCVSPRP | YES
RRIRDRPPRLPRPRPRPFAFPRP | YES
RRIRRRPPRLPRPRPRPYDNPRP | NO
RRIRPRPPRLPRPRPRPVIQPRP | NO

Now, please, on to the next sequence.
Quick check: does `RRIRARPPRLPRPRPRPSFKPRP` have shrunken log2 fold change greater than or equal to -0.1? NO

----------
- System: Escherichia coli TOP10
- assay.info: shrunken log2 fold change of peptide-encoding DNA abundance (4.5 h post-induction vs induction); higher = less antimicrobial activity (less host growth inhibition)
- test.context: time post-induction: 4.5 h; library: site-saturation at positions 5, 18, 19, 20
measurement.type: shrunken log2 fold change
Reply with the value as a number alone.

Consider the following illustrative entries.
primary.sequence | shrunken log2 fold change
RRIRVRPPRLPRPRPRPPYIPRP | -0.28
RRIRGRPPRLPRPRPRPRQVPRP | 0.585
RRIRGRPPRLPRPRPRPFHRPRP | -0.118

Report measured shrunken log2 fold change; entry is `RRIRPRPPRLPRPRPRPYQWPRP` -0.124

Report measured shrunken log2 fold change; entry is `RRIRNRPPRLPRPRPRPSKWPRP` -0.213

Report measured shrunken log2 fold change; entry is `RRIRSRPPRLPRPRPRPGNGPRP` -0.0508

----------
- Tested on: Escherichia coli TOP10
- assay.info: shrunken log2 fold change of peptide-encoding DNA abundance (4.5 h post-induction vs induction); higher = less antimicrobial activity (less host growth inhibition)
- test.context: time post-induction: 4.5 h; library: site-saturation at positions 5, 18, 19, 20
measurement.type: shrunken log2 fold change
Reply with the value as a number alone.

primary.sequence | system.under.test | shrunken log2 fold change
RRIRWRPPRLPRPRPRPAVAPRP | Escherichia coli TOP10 | 0.544
RRIRTRPPRLPRPRPRPKSIPRP | Escherichia coli TOP10 | -0.194
RRIRSRPPRLPRPRPRPPLVPRP | Escherichia coli TOP10 | -0.0483

Report measured shrunken log2 fold change; entry is `RRIRTRPPRLPRPRPRPKDGPRP` -0.0362

----------
- System: Escherichia coli TOP10
- assay.info: shrunken log2 fold change of peptide-encoding DNA abundance (4.5 h post-induction vs induction); higher = less antimicrobial activity (less host growth inhibition)
- test.context: time post-induction: 4.5 h; library: site-saturation at positions 5, 18, 19, 20
measurement.type: shrunken log2 fold change
Reply with the value as a number alone.

Consider the following illustrative entries.
primary.sequence | recorded.measurement
RRIRCRPPRLPRPRPRPFTWPRP | -0.188
RRIRIRPPRLPRPRPRPAHLPRP | 0.117

Now for a further sequence.
Report measured shrunken log2 fold change; entry is `RRIRRRPPRLPRPRPRPQAKPRP` 0.418

----------
- Tested on: Escherichia coli TOP10
- assay.info: shrunken log2 fold change of peptide-encoding DNA abundance (4.5 h post-induction vs induction); higher = less antimicrobial activity (less host growth inhibition)
- test.context: time post-induction: 4.5 h; library: site-saturation at positions 5, 18, 19, 20
measurement.type: shrunken log2 fold change
Reply with the value as a number alone.

Consider the following illustrative entries.
primary.sequence | shrunken log2 fold change
RRIRYRPPRLPRPRPRPCLHPRP | -0.633
RRIRARPPRLPRPRPRPFGNPRP | -0.148

Report measured shrunken log2 fold change; entry is `RRIRIRPPRLPRPRPRPRIFPRP` -1.13

----------
- Tested on: Escherichia coli TOP10
- assay.info: shrunken log2 fold change of peptide-encoding DNA abundance (4.5 h post-induction vs induction); higher = less antimicrobial activity (less host growth inhibition)
- test.context: time post-induction: 4.5 h; library: site-saturation at positions 5, 18, 19, 20
measurement.type: shrunken log2 fold change
Reply with the value as a number alone.

Consider the following illustrative entries.
primary.sequence | recorded.measurement
RRIRTRPPRLPRPRPRPRTAPRP | 2.87
RRIRVRPPRLPRPRPRPTWLPRP | 0.318
RRIRTRPPRLPRPRPRPKACPRP | 0.0653

Report measured shrunken log2 fold change; entry is `RRIRCRPPRLPRPRPRPWCTPRP` 0.023

----------
- Test system: Escherichia coli TOP10;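 note: peptides expressed intracellularly from a pBAD plasmid library in pooled LB shake-flask culture, induced with 0.3% L-arabinose, DNA abundance read by NGS, three biological replicates, DESeq2 with apeglm shrinkage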
- assay.info: shrunken log2 fold change of peptide-encoding DNA abundance (4.5 h post-induction vs induction); higher = less antimicrobial activity (less host growth inhibition)
- test.context: time post-induction: 4.5 h; library: site-saturation at positions 5, 18, 19, 20
measurement.type: shrunken log2 fold change

Consider the following illustrative entries.
primary.sequence | shrunken log2 fold change
RRIRRRPPRLPRPRPRPWSGPRP | 0.0397
RRIRNRPPRLPRPRPRPHCQPRP | -0.861
RRIRARPPRLPRPRPRPHECPRP | 0.423
RRIRGRPPRLPRPRPRPPEKPRP | 1.64
RRIRARPPRLPRPRPRPAFKPRP | 0.126
RRIRHRPPRLPRPRPRPRRHPRP | 0.153

Report measured shrunken log2 fold change; entry is `RRIRIRPPRLPRPRPRPAGKPRP` 0.0304

Report measured shrunken log2 fold change; entry is `RRIRGRPPRLPRPRPRPDPYPRP` -0.0305

Report measured shrunken log2 fold change; entry is `RRIRHRPPRLPRPRPRPYMCPRP` -0.536

Report measured shrunken log2 fold change; entry is `RRIRDRPPRLPRPRPRPKFLPRP` -0.241

Report measured shrunken log2 fold change; entry is `RRIRNRPPRLPRPRPRPFKWPRP` -0.224
